For each entry below, report its IC50 value.
biological target: G119S AChE1 (Culex pipiens, UniProt Q86GC8, G247S); construct: made in house; host or cells: Drosophila S2 cells; test: biochemical; format: biochemical; conditions: recombinant OP-insensitive G119S C. pipiens AChE1; 15 min incubation; acetylthiocholine; read-out: IC50 G119S
Just the number in µM, nothing appended.

Recorded IC50 (molecule O=C1NC(=O)N(c2ccccc2)C(=O)C1=Cc1ccc(-c2ccccc2C(=O)O)o1 ): 18.5

Recorded IC50 (molecule Cc1ccc(C=C2C(=O)N(C)C(=O)N(C)C2=O)o1 ): 7.6

Recorded IC50 (molecule COc1ccc(N2C(=O)C(=Cc3ccc(C)o3)C(=O)NC2=S)cc1 ): 5.9

Recorded IC50 (molecule Cc1cccc(N2C(=O)NC(=O)C(=Cc3ccc(C)o3)C2=O)c1 ): 4.4

Recorded IC50 (molecule O=C1NC(=O)N(c2ccccc2)C(=O)C1=Cc1ccc(-c2cccc(C(=O)O)c2)s1 ): 4.6

Recorded IC50 (molecule CN1C(=O)C(=Cc2ccc([N+](=O)[O-])o2)C(=O)N(C)C1=O ): 55

Recorded IC50 (molecule CCOc1ccc(N2C(=O)NC(=O)C(=Cc3ccc(C)o3)C2=O)cc1 ): 89

Recorded IC50 (molecule CN1C(=O)C(=Cc2ccc(-c3cccc(C(=O)O)c3)o2)C(=O)N(C)C1=O ): 0.6

Recorded IC50 (molecule CN1C(=O)C(=Cc2ccc(N(C)C)o2)C(=O)N(C)C1=O ): 132

Recorded IC50 (molecule CC(C)(C)N=C1NC(=O)C(=Cc2ccco2)C(=O)N1c1ccccc1 ): 22

Recorded IC50 (molecule Cc1ccc(C=C2C(=O)NC(=S)N(CC3CCCO3)C2=O)o1 (centres unmarked) ): 2.3

Recorded IC50 (molecule CN1C(=O)C(=Cc2ccc(Sc3ccccc3)o2)C(=O)N(C)C1=O ): 1.3

Recorded IC50 (molecule O=C1NC(=O)N(c2ccccc2)C(=O)C1=Cc1ccc(-c2ccc(C(=O)O)cc2)o1 ): 5.4

Recorded IC50 (molecule Cc1ccc(C=C2C(=O)NC(=S)N(c3ccc(Br)cc3)C2=O)o1 ): 142

Recorded IC50 (molecule CC(=O)c1ccc(-c2ccc(C=C3C(=O)N(C)C(=O)N(C)C3=O)o2)cc1 ): 1.1

Recorded IC50 (molecule CN1C(=O)C(=Cc2ccc(N3CCCCC3)o2)C(=O)N(C)C1=O ): 65.5

Recorded IC50 (molecule CCCCN1C(=O)C(=Cc2ccc(C)o2)C(=O)NC1=S ): 15.5

# credit: paper PMC3466212
